Below is a list of entries, each paired with its recorded TGI value.
Tested on: ACHN renal
Test: NCI tumour cell line growth inhibition, 48 h

| SMILES_STRUCTURE | EXPERIMENTAL_TARGET | QUALIFIER_SIGN | TGI (µM) |
| --- | --- | --- | --- |
| COC(=O)c1ccccc1/C=C1/Cc2ccccc2C1=O | ACHN renal | > | 100 |
| COc1ccc2c(c1)O/C(=C\c1cccc(OCC(=O)Nc3nc4c(s3)CCCC4)c1)C2=O | ACHN renal | = | 33.6 |
| Cc1ccncc1.[O]=[Ge].[O]=[Ge].[O]=[Ge].[O]=[Ge].[O]=[Ge].[O]=[Ge][OH].[O]=[Ge][OH] | ACHN renal | > | 100 |
| CN(CCCN)CCCNc1nc2ccccc2c2[nH]c3ccccc3c12 | ACHN renal | = | 4.45 |
| CNS(=O)(=O)NN(C)S(=O)(=O)c1ccc(F)cc1 | ACHN renal | > | 100 |

###

Below is a list of entries, each paired with its recorded GI50 value.
Tested on: MOLT-4 leukemia
Assay: NCI tumour cell line growth inhibition, 48 h

| COMPOUND | GI50 |
| --- | --- |
| C[C@@H](C(=O)Nc1ccc(Cl)cc1)C1CCC(c2ccnc3ccc(F)cc23)CC1 (some centres undefined) | 4.16 µM |
| COC(=O)[C@H](Cc1cn(C)cn1)NC(=O)[C@H](Cc1c[nH]c2ccccc12)NC(=O)Nc1cc(C(F)(F)F)cc(C(F)(F)F)c1 | > 10 µM |
| C[C@H](Nc1ncnc2nc[nH]c12)c1cc2cccc(Cl)c2c(=O)n1-c1ccccc1 | 6.53 µM |
| COc1ccc(C(=O)/C=C/c2ccc(/C=C/c3cc(OC)c(OC)c(OC)c3)cc2)cc1 | 3.49 µM |

###

System: RXF 393 renal
Experiment: NCI tumour cell line growth inhibition, 48 h; in the data active = GI50 below about 0.43 µM; inactive = the rest
Outcome codes: Y (active), N (inactive)

| MOLECULE | LABEL_VALUE |
| --- | --- |
| COc1ccc(C(=O)/C=C/c2ccc(/C=C/c3cc(OC)c(OC)c(OC)c3)cc2)cc1 | N |
| CCN1C(=O)N(CC)C2C1NN=c1s/c(=C\c3cccnc3)c(=O)n12 (stereo unspecified) | Y |
| C=C1C(O)C2(O)OCC34C(CC5C(C)=CC(=O)C(O)C5(C)C23)OC(=O)C(OC(=O)C/C=C(\C)CCCCC)C14 (stereo unspecified) | Y |
| Cc1ccncc1.[O]=[Ge].[O]=[Ge].[O]=[Ge].[O]=[Ge].[O]=[Ge].[O]=[Ge][OH].[O]=[Ge][OH] | N |
| COC1(C(=O)N[C@@H](C)c2ccc(-n3cc(F)cn3)nc2)CCC(c2nc(C)cc(Nc3cc(C)[nH]n3)n2)CC1 (stereo partly specified) | Y |
| O=C1c2ccccc2-c2c1c1ccccc1c(=O)n2CCCNCCCNCCCn1c2c(c3ccccc3c1=O)C(=O)c1ccccc1-2 | Y |

###

Tested on: DU-145 prostate
Test: NCI tumour cell line growth inhibition, 48 h
MEASUREMENT_KIND: TGI

| COMPOUND | EXPERIMENTAL_TARGET | TEST_VALUE |
| --- | --- | --- |
| Nc1c2ccccc2nc2c1ccc1ncccc12 | DU-145 prostate | > 100 µM |
| CCCCCn1c(=N)n(CC(O)COc2cccc(C)c2)c2ccccc21 (stereo unspecified) | DU-145 prostate | 24 µM |
| O=C(CC(=O)CC(O)(C(F)(F)F)C(F)(F)F)CC(O)(C(F)(F)F)C(F)(F)F | DU-145 prostate | > 10 µM |
| O=C1c2ccccc2-c2c1c1ccccc1c(=O)n2CCCNCCCNCCCn1c2c(c3ccccc3c1=O)C(=O)c1ccccc1-2 | DU-145 prostate | 0.181 µM |
| Cc1ccc(/C=C2\CN(C(=O)OC(C)(C)C)C/C(=C\c3ccc(C)cc3)C2=O)cc1 | DU-145 prostate | > 100 µM |
| COC(=O)NN(C(=O)OC)c1c(-c2ccccc2)nc(SC)n1N | DU-145 prostate | > 100 µM |

###

System: A549 NSCLC
Experiment: NCI tumour cell line growth inhibition, 48 h; in the data active = GI50 below about 0.43 µM; inactive = the rest
Outcome codes: Y for active, N for inactive

| MOLECULE | LABEL_VALUE |
| --- | --- |
| O=C1OC(=O)C(c2c[nH]c3ccccc23)=C1c1c[nH]c2ccccc12 | N |
| CN(CCCN)CCCNc1nc2ccccc2c2[nH]c3ccccc3c12 | Y |
| CN(C)S(=O)(=O)c1ccc(NC(=O)COC(=O)c2ccc(S(=O)(=O)N3CCCCC3)cc2)cc1 | N |
| COc1ccc(C(=O)/C=C/c2ccc(/C=C/c3cc(OC)c(OC)c(OC)c3)cc2)cc1 | N |
| COc1ccc(-c2ccc(/C=N/n3c(COc4ccc(Cl)cc4Cl)n[nH]c3=S)o2)c([N+](=O)[O-])c1 | N |
| C=C1C(O)C2(O)OCC34C(CC5C(C)=CC(=O)C(O)C5(C)C23)OC(=O)C(OC(=O)C/C=C(\C)CCCCC)C14 (configuration not stated) | Y |
| COc1c(CCC[P+](c2ccccc2)(c2ccccc2)c2ccccc2)cc2c(c1OC)OCO2 | N |
| Cc1ccncc1.[O]=[Ge].[O]=[Ge].[O]=[Ge].[O]=[Ge].[O]=[Ge].[O]=[Ge][OH].[O]=[Ge][OH] | N |
| Nc1c(C(=O)Nc2cccc([N+](=O)[O-])c2)sc2nc3c(cc12)C(O)CCC3 (configuration not stated) | N |
| CN(C)c1nc(=NCc2ccncc2)ss1 | N |
| COC(=O)/C=C/C=C(c1ccccc1)c1ccccc1 | N |
| CN1CCN(CCc2cccc(C(=O)c3cnn(-c4ccc(F)cc4)c3N)c2)CC1 | N |

###

Below is a list of entries, each paired with its recorded TGI value.
System: SNB-75 CNS
Test: NCI tumour cell line growth inhibition, 48 h

| COMPOUND | EXPERIMENTAL_TARGET | QUALIFIER_SIGN | TGI [µM] |
| --- | --- | --- | --- |
| COP(=O)(O)/C=C/C(NC(=O)C(Cl)(Cl)Cl)c1ccccc1 (stereo not given) | SNB-75 CNS | > | 100 |
| C=CCc1c2c(c(OC)c3ccoc13)C(=O)/C(=C/c1ccccc1OC)O2 | SNB-75 CNS | = | 4.91 |
| O=C(NC(Cc1c[nH]c2ccccc12)C(=O)O)/C(=C/c1ccccc1O)NC(=O)c1ccccc1 (stereo not given) | SNB-75 CNS | = | 38.5 |
| CCCCCn1c(=N)n(CC(O)COc2cccc(C)c2)c2ccccc21 (stereo not given) | SNB-75 CNS | = | 16.5 |
| O=C(CP(=O)(O)O)c1cccs1 | SNB-75 CNS | > | 100 |
| CCC(C(=O)O)c1ccc(OCc2ccccc2)cc1 (stereo not given) | SNB-75 CNS | > | 100 |
| COc1cc(Cl)cc(-c2nn(C(=O)NCCN3CCOCC3)cc2-c2ccncc2)c1 | SNB-75 CNS | = | 8.78 |
| Cc1[c-]onc1C.Cc1[c-]onc1C.[Ag].[Ag].[NH-]S(=O)(=O)c1ccc(N=Nc2cc(N=Nc3ccc(S([NH-])(=O)=O)cc3)c3c(NC(=O)C(Cl)Cl)cccc3c2OC(=O)C(Cl)Cl)cc1 | SNB-75 CNS | = | 18.9 |
| O=C(c1ccc(F)cc1)c1cccc(C(=O)c2ccc(F)cc2)n1 | SNB-75 CNS | = | 22.7 |
| CCCCCCCCCCCCOC(=S)NCCCC | SNB-75 CNS | = | 95.1 |

###

Below is a list of entries, each paired with its recorded TGI value.
System: SR leukemia
Experiment: NCI tumour cell line growth inhibition, 48 h
MEASUREMENT_KIND: TGI

| MOLECULE | TEST_VALUE |
| --- | --- |
| C/C(N=Nc1nc2ccccc2s1)=C1/C=CC=CN1O | > 100 µM |
| Cc1ccccc1OC(C)C(=O)NN1C(=O)CC(=O)N(c2ccc(Cl)cc2)C1=S (configuration not stated) | 84.1 µM |
| O=c1c2c([nH]c3cc4c(cc13)OCO4)-c1ccccc1CC2 | > 100 µM |
| CCN(CC)S(=O)(=O)c1ccc(OC)c(Nc2ncc(-c3ccccc3)o2)c1 | > 25 µM |
| CN(C)NC(=S)Nc1ccccc1Br | > 100 µM |
| Cc1ccc(/C=C2\CN(C(=O)OC(C)(C)C)C/C(=C\c3ccc(C)cc3)C2=O)cc1 | > 100 µM |
| COc1c(CCC[P+](c2ccccc2)(c2ccccc2)c2ccccc2)cc2c(c1OC)OCO2 | 15 µM |
| Cc1cn2c(/C=C3/C(=O)Nc4cccc(Cl)c43)c(Cl)nc2s1 | > 100 µM |
| O=C1NCCCc2nonc21 | > 100 µM |
| Oc1ccc(-c2nnc3sc(-c4ccc(F)cc4)nn23)cc1 | > 100 µM |
| O=C(CN1CCCCC1)CC(O)(C(F)(F)F)C(F)(F)F | > 100 µM |
| O=C1c2ccccc2CN1c1ccc(O)cc1 | > 100 µM |
| C[N+](C)(C)CC(=O)N/N=C(/Cc1nc2c3c(ccc2[nH]c1=O)C(=O)c1ccccc1C3=O)C(=O)Nc1ccc(Cl)c(Cl)c1 | > 100 µM |
| c1cc(-c2cn3ccsc3n2)ccn1 | > 100 µM |
| COc1ccc2nc3cc([N+](=O)[O-])ccc3c(NCCCCCN(C)C)c2c1 | 14.1 µM |
| COc1nc(NC2OCC(OC(C)=O)C(OC(C)=O)C2OC(C)=O)c(N=CC=Nc2c(NC3OCC(OC(C)=O)C(OC(C)=O)C3OC(C)=O)nc(OC)n(C)c2=O)c(=O)n1C (configuration not stated) | > 100 µM |
| CNC(=O)n1ccc2cc(Oc3ccnc(NC(=O)c4ccc(C5CCN(CCO)CC5)cc4)c3)c(OCCOC)cc21 | 25 µM |
| C/C(=N/NC(N)=S)c1ccc2ccccc2c1 | > 100 µM |
| C=C(Cl)/C(=C\Cl)CCC(Br)C(C)C (configuration not stated) | > 100 µM |
| CCNC(=O)Nc1ccccn1 | > 100 µM |
| CCC1=CCC23C(=O)C=CC(=O)C2(C1)C(=O)c1cccc(OC)c1C3=O (configuration not stated) | 41.4 µM |
| O=c1c2ncn(C3CC(O)C(CO)O3)c2nnn1Cc1ccccc1[N+](=O)[O-] (configuration not stated) | 45.4 µM |
